Test: Corneal to plasma drug concentration after eye drop administration in rats
Assay type: in vivo
Conditions: male, rat, cornea/plasma, topical, 5 mg/mL; SD rats, eye drop administration; read-out: Ratio of cornea/plasma
Endpoint: Kp

Exercise: Record request: Kp value, item CC(C)(O)c1cc(F)c(-c2cnc(C(C)(C)O)c(N)c2)cc1N [Compound represented by formula (I)]
Key: > 10

* * *

Assay: Pharmacokinetics in cynomolgus monkeys, single intravenous injection
Assay type: in vivo
Details: male, cynomolgus monkey, plasma, 1 mg/kg single intravenous injection, read-out: Clearance rate
Endpoint: clearance (mL/min/kg)
Give bare numbers, in mL/min/kg.

Exercise: Record request: clearance value, item CC(C)(O)c1cc(F)c(-c2cnc(C(C)(C)O)c(N)c2)cc1N
Key: 4.6

* * *

Assay: Corneal to plasma drug concentration after eye drop administration in rats
Assay type: in vivo
Conditions: male, rat, cornea/plasma, topical; SD rats, eye drops 5 mg/mL, 1 h; read-out: Corneal concentration/plasma concentration C/P ratio
Endpoint: Kp at 1 h

Exercise: Record request: Kp at 1 h value, item CC(C)(O)c1cc(F)c(-c2cnc(C(C)(C)O)c(N)c2)cc1N
Key: 11.8

* * *

Experiment: Pharmacokinetics in Beagle dogs, single intravenous injection
Type: in vivo
Conditions: male, dog, plasma, 1 mg/kg single intravenous injection, read-out: Clearance rate
Endpoint: clearance (mL/min/kg)
Give bare numbers, in mL/min/kg.

Exercise: Record request: clearance value, item CC(C)(O)c1cc(F)c(-c2cnc(C(C)(C)O)c(N)c2)cc1N
Key: 11.3
